Each entry below carries its recorded IC50.
biological target: C-C chemokine receptor type 5 (Homo sapiens); test: Displacement of [125I]MIP-1beta from human CCR5 expressed in CHO cells

{"compound": "CC(C)(C)OC(=O)N1CCC(CCCN2CCC3(CC2)C(=O)NCN3c2ccccc2)(c2ccccc2)CC1", "IC50": "8.51 µM"}
{"compound": "Cc1nc2ccccc2n1[C@H]1CC2CC[C@H](C1)N2CCC1(c2ccccc2)CCN(C(=O)C2CCCC2)CC1 (single isomer, unassigned)", "IC50": "0.02 µM"}
{"compound": "Cc1nc2ccccc2n1[C@H]1C[C@H]2CC[C@@H](C1)N2CCC1(c2ccc(Cl)c(Cl)c2)CCN(C(=O)OC(C)(C)C)CC1", "IC50": "0.0295 µM"}
{"compound": "Cc1nc2ccccc2n1[C@@H]1C[C@H]2CC[C@@H](C1)N2CCC1(c2ccccc2)CCN(C(=O)OCc2ccccc2)CC1", "IC50": "0.0631 µM"}
{"compound": "O=C1CCC(CCCN2CCC(n3c(=O)[nH]c4ccccc43)CC2)(c2ccc(Cl)c(Cl)c2)CN1Cc1ccccc1 (stereo not given)", "IC50": "20 µM"}
{"compound": "Cc1nc2ccccc2n1[C@H]1C[C@H]2CC[C@@H](C1)N2CCC1(c2cccc(Cl)c2)CCN(C(=O)OC(C)(C)C)CC1", "IC50": "0.00501 µM"}
{"compound": "O=C1CC(CCCN2CCC3(CC2)C(=O)NCN3c2ccccc2)(c2ccc(Cl)c(Cl)c2)CN1Cc1ccccc1 (stereo not given)", "IC50": "1.02 µM"}
{"compound": "CC(C)(C)OC(=O)N1CCC(CCCN2CCC(n3c(=O)[nH]c4ccccc43)CC2)(c2ccccc2)CC1", "IC50": "3.98 µM"}
{"compound": "O=C(c1ccccc1)N1CCCC(CCCN2CCC(n3c(=O)[nH]c4ccccc43)CC2)(c2ccc(Cl)c(Cl)c2)C1 (stereo not given)", "IC50": "1.58 µM"}
{"compound": "Cc1nc2ccccc2n1C1CC2COCC(C1)N2CCC1(c2ccccc2)CCN(C(=O)c2ccccc2)CC1 (stereo not given)", "IC50": "> 3.16 µM"}
{"compound": "O=C1NCN(c2ccccc2)C12CCN(CCOC1(c3ccc(Cl)c(Cl)c3)CCN(S(=O)(=O)c3ccccc3)CC1)CC2", "IC50": "2.4 µM"}
{"compound": "O=C(c1ccccc1)N1CCCC(CCCN2CCC3(CC2)C(=O)NCN3c2ccccc2)(c2ccc(Cl)c(Cl)c2)C1 (stereo not given)", "IC50": "0.447 µM"}
{"compound": "O=C(c1ccco1)N1CCC(CCCN2CCC3(CC2)C(=O)NCN3C2CCCCC2)(c2ccc(Cl)c(Cl)c2)C1 (stereo not given)", "IC50": "> 31.6 µM"}
{"compound": "CC(C)(C)OC(=O)N1CCC(CCCN2CCC(n3c(=O)[nH]c4ccccc43)CC2)(c2ccc(Cl)c(Cl)c2)CC1", "IC50": "7.94 µM"}
{"compound": "O=C(c1ccco1)N1CCC(CCCN2CCC3(CC2)C(=O)NC(=O)N3c2ccccc2)(c2ccc(Cl)c(Cl)c2)C1 (stereo not given)", "IC50": "> 31.6 µM"}

* * *

molecular target: C-C chemokine receptor type 5 (Homo sapiens, UniProt P51681); experiment: Displacement of [125I]MIP-1beta from human CCR5 expressed in CHO cells; assay type: cell-based
Sequence (P51681 whole entry): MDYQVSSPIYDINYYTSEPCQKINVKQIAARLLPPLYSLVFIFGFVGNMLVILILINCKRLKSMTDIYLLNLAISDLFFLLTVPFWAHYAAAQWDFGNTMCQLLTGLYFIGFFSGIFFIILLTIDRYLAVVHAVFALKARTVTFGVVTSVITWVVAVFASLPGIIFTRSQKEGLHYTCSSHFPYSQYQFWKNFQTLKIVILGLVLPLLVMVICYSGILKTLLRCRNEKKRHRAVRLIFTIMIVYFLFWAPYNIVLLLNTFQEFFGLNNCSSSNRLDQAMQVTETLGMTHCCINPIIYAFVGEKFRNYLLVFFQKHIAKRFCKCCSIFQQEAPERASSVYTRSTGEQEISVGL
pIC50: −log10 of the molar value.
Each entry below carries its recorded pIC50.
measured-property: pIC50

{"molecule": "CN1CN(c2ccccc2)C2(CCN(CCCC3(c4ccc(Cl)c(Cl)c4)CCN(C(=O)c4ccco4)C3)CC2)C1=O (stereo not given)", "relation-qualifier": "=", "meas-value": 5.15}
{"molecule": "Cc1nc2ccccc2n1[C@H]1C[C@H]2CC[C@@H](C1)N2CCC1(c2ccc(Cl)c(Cl)c2)CCN(C(=O)c2ccccc2)CC1", "relation-qualifier": "=", "meas-value": 7.80}
{"molecule": "O=C(c1ccco1)N1CCC(CCCN2CCC3(CC2)C(=O)NCN3c2ccccc2)(c2ccc(Cl)c(Cl)c2)C1 (stereo not given)", "relation-qualifier": "=", "meas-value": 6.85}
{"molecule": "Cc1nc2ccccc2n1[C@H]1C[C@H]2CC[C@@H](C1)N2CCCC1(c2ccccc2)CCN(C(=O)OC(C)(C)C)CC1", "relation-qualifier": "<", "meas-value": 4.50}
{"molecule": "Cc1nc2ccccc2n1[C@@H]1C[C@H]2CC[C@@H](C1)N2CCC1(c2ccccc2)CCN(C(=O)OC(C)(C)C)CC1", "relation-qualifier": "=", "meas-value": 7.20}
{"molecule": "O=C(c1ccco1)N1CCC(OCCN2CCC3(CC2)C(=O)NCN3c2ccccc2)(c2ccc(Cl)c(Cl)c2)C1 (stereo not given)", "relation-qualifier": "=", "meas-value": 5.40}
{"molecule": "O=C(C1CCCC1)N1CCC(OCCN2CCC3(CC2)C(=O)NCN3c2ccccc2)(c2ccc(Cl)c(Cl)c2)C1 (stereo not given)", "relation-qualifier": "=", "meas-value": 5.32}
{"molecule": "Cc1nc2ccccc2n1[C@H]1C[C@H]2CC[C@@H](C1)N2CCC1(c2ccc(Cl)c(Cl)c2)CCN(C(=O)OC(C)(C)C)C1 (stereo not given in full)", "relation-qualifier": "=", "meas-value": 6.11}
{"molecule": "Cc1nc2ccccc2n1[C@@H]1C[C@H]2CC[C@@H](C1)N2CCCC1(c2ccccc2)CCN(C(=O)c2ccco2)CC1", "relation-qualifier": "=", "meas-value": 5.30}
{"molecule": "O=C1NCN(c2ccccc2)C12CCN(CCCC1(c3ccc(Cl)c(Cl)c3)CCN(Cc3ccco3)C1)CC2 (stereo not given)", "relation-qualifier": "=", "meas-value": 5.28}
{"molecule": "O=C(c1ccco1)N1CCC(CCN2CCC3(CC2)C(=O)NCN3c2ccccc2)(c2ccccc2)C1 (stereo not given)", "relation-qualifier": "=", "meas-value": 5.03}
{"molecule": "Cc1nc2ccccc2n1[C@H]1C[C@H]2CC[C@@H](C1)N2CCC1(c2ccc(Cl)c(Cl)c2)CCN(C(=O)C(C)(C)C)CC1", "relation-qualifier": "=", "meas-value": 8.14}
{"molecule": "Cc1nc2ccccc2n1[C@@H]1C[C@H]2CC[C@@H](C1)N2CCCC1(c2ccccc2)CCN(C(=O)c2ccccc2)CC1", "relation-qualifier": "=", "meas-value": 5.90}
{"molecule": "O=C1NCN(c2ccccc2)C12CCN(CCCC1(c3ccc(Cl)c(Cl)c3)CN(S(=O)(=O)c3ccccc3)C1)CC2", "relation-qualifier": "=", "meas-value": 5.04}
{"molecule": "Cc1nc2ccccc2n1[C@@H]1C[C@H]2CC[C@@H](C1)N2CCCC1(c2ccc(Cl)c(Cl)c2)CCN(C(=O)OC(C)(C)C)CC1", "relation-qualifier": "=", "meas-value": 4.70}

* * *

molecular target: C-C chemokine receptor type 5 (Homo sapiens, UniProt P51681); assay: Displacement of [125I]MIP-1beta from human CCR5 expressed in CHO cells

{"molecule": "O=C(c1ccco1)N1CCC(CCN2CCC3(CC2)C(=O)NCN3c2ccccc2)(c2ccc(Cl)c(Cl)c2)C1 (stereo not drawn)", "relation-qualifier": "=", "IC50, µM": 1.48}
{"molecule": "CC(C)(C)OC(=O)N1CCC(CCN2CCC3(CC2)C(=O)NCN3c2ccccc2)(c2ccccc2)CC1", "relation-qualifier": "=", "IC50, µM": 4.57}
{"molecule": "NC(=O)C1(Nc2ccccc2)CCN(CCCC2(c3ccc(Cl)c(Cl)c3)CCCN(C(=O)c3ccccc3)C2)CC1 (stereo not drawn)", "relation-qualifier": ">", "IC50, µM": 31.6}
{"molecule": "O=C1NCN(c2ccccc2)C12CCN(CCOC1(c3ccc(Cl)c(Cl)c3)CCN(S(=O)(=O)c3ccccc3)C1)CC2 (stereo not drawn)", "relation-qualifier": "=", "IC50, µM": 20.4}
{"molecule": "O=C1CCC(CCCN2CCC3(CC2)C(=O)NCN3c2ccccc2)(c2ccc(Cl)c(Cl)c2)CN1Cc1ccccc1 (stereo not drawn)", "relation-qualifier": "=", "IC50, µM": 1}
{"molecule": "O=C1CC(CCN2CCC3(CC2)C(=O)NCN3c2ccccc2)(c2ccc(Cl)c(Cl)c2)CN1Cc1ccccc1 (stereo not drawn)", "relation-qualifier": "=", "IC50, µM": 9.33}
{"molecule": "Cc1nc2ccccc2n1[C@H]1C[C@H]2CC[C@@H](C1)N2CCC1(c2cccc(Cl)c2)CCN(C(=O)c2ccccc2)CC1", "relation-qualifier": "=", "IC50, µM": 0.00525}
{"molecule": "O=C(c1ccco1)N1CCC(OCCN2CCC3(CC2)C(=O)NCN3c2ccccc2)(c2ccc(Cl)c(Cl)c2)CC1", "relation-qualifier": "=", "IC50, µM": 3.47}
